assay_procedure: acute toxicity on the rat, oral LD50
Type: in vivo
reported_conditions: rat, in vivo, po, rat; mg/kg meclofenamic acid; read-out: LD50 as corresponding meclofenamic acid
Documented LD50 at 480 h across a set of molecules
quantity_measured: LD50 at 480 h (mg/kg)

> print(dat)
                                   molecule  meas.value
1  Cc1ccc(Cl)c(Nc2ccccc2C(=O)O)c1Cl [Sodium meclofenamate, sodium meclofenamate, reference compound]         119
2   Cc1ccc(Cl)c(Nc2ccccc2C(=O)OCC(=O)O)c1Cl         213

----------
assay_procedure: acute toxicity on the rat, oral LD50
Format: in vivo
reported_conditions: rat, in vivo, po, male and female rats, 20 days of observation, probit method; read-out: DL50
Description: The anti-inflammatory and analgesic activity of compound Ib was tested after oral administration in the carrageenin oedema test in the rat (C. A. Winter et al. Proc. Soc. Exp. Biol. Med., 111, 544, 1962), in the phenylquinone writhing test (I. C. Hendershot and J. J. Forsaith, Pharmacol. Exp. Ther., 125, 237, 1959) and in the hot plate test on the mouse (N. B. Eddy and D. J. Leimbach, J. Pharmacol. Exp. Ther., 107, 385, 1953). […] The two LD 50 values were calculated by the probit method.
quantity_measured: LD50 at 480 h (mg/kg)

> print(dat)
                                   compound  quantity.measured  endpoint.unit  meas.value
1   Cc1ccc(Cl)c(Nc2ccccc2C(=O)OCC(=O)O)c1Cl      LD50 at 480 h          mg/kg         271
2  Cc1ccc(Cl)c(Nc2ccccc2C(=O)O)c1Cl [Sodium meclofenamate, sodium meclofenamate, reference compound]      LD50 at 480 h          mg/kg         127
